System: BRCA1 mutant breast cancer line MDA-MB-436
assay-text: 7-day CellTiter-Glo (CTG) cell viability and synergy assay
Format: cell-based
reported-conditions: Homo sapiens, MDA-MB-436, MDA-MB-436; in combination with Niraparib 100 nM; read-out: EC50 of Artios' POLQi
pEC50: −log10 of the molar value.
attribute-measured: pEC50

>>> measured_value("Cc1cccc(N(C)C(=O)[C@@H]2[C@H](O)CCN2c2nc(C)cc(C(F)(F)F)c2C#N)c1 [ART558, reference compound]")
5.99

====

Tested on: BRCA1 mutant breast cancer line MDA-MB-436
assay-text: 7-day CellTiter-Glo (CTG) cell viability and synergy assay
Type: cell-based
reported-conditions: Homo sapiens, MDA-MB-436, MDA-MB-436; in combination with Niraparib 10 nM; read-out: EC50 of Artios' POLQi
Description: Single agent EC50 values for Compound A were above 30 μM in both cell lines. […] After 7 days, cell viability was assessed with the CTG assay. Dose response curves were interpolated using GraphPad Prism 9ART, and the synergy of drug combinations using data from the cell viability assays was analyzed with ComBenefit 2.02 (Table 4). Synergy scores of Compound A and Niraparib co-treatment were calculated using Combenefit. […]
pEC50: −log10 of the molar value.
attribute-measured: pEC50

>>> measured_value("Cc1cccc(N(C)C(=O)[C@@H]2[C@H](O)CCN2c2nc(C)cc(C(F)(F)F)c2C#N)c1 [ART558, reference compound]")
5.40

====

System: BRCA1 mutant breast cancer line MDA-MB-436
assay-text: 7-day CellTiter-Glo (CTG) cell viability and synergy assay
Type: cell-based
reported-conditions: Homo sapiens, MDA-MB-436, 168 h, MDA-MB-436, 7-day CTG, single agent; read-out: Single agent EC50
attribute-measured: EC50

>>> measured_value("COc1nnc(NC(=O)c2cnc(C)cc2-c2cc(Cl)ncc2OC)s1")
"> 30 µM"

====

System: BRCA1 mutant breast cancer line MDA-MB-436
assay-text: 7-day CellTiter-Glo (CTG) cell viability and synergy assay
Format: cell-based
reported-conditions: Homo sapiens, MDA-MB-436, MDA-MB-436; in combination with Talazoparib 1.2 nM; read-out: EC50
The following molecules are shown together with reported EC50 values.
attribute-measured: EC50 (µM)

>>> measured_value("COc1nnc(NC(=O)c2cnc(C)cc2-c2cc(Cl)ncc2OC)s1")
0.095
>>> measured_value("Cc1cccc(N(C)C(=O)[C@@H]2[C@H](O)CCN2c2nc(C)cc(C(F)(F)F)c2C#N)c1 [ART558, reference compound]")
2.29
